test system: hvCAS (human ventricular cardiac anisotropic sheet of HES2 hESC-derived ventricular cardiomyocytes); assay type: cell-based; conditions: human, pH 7.4
Marks after values point to notes of the source that are not given here.

{"compound": "Cc1cccc(C)c1NC(=O)C(C)N (centres unmarked) [TOC, tocainide]", "No. of Re-entry, 2nd dose": "1^[a]"}
{"compound": "CCN(CC)CCNC(=O)c1ccc(N)cc1 [PROC, procainamide]", "No. of Re-entry, 2nd dose": 2}
{"compound": "O=C(NCC1CCCCN1)c1cc(OCC(F)(F)F)ccc1OCC(F)(F)F (centres unmarked) [FLE, flecainide]", "No. of Re-entry, 2nd dose": "1^[a]"}
{"compound": "COc1cc(N)c(Cl)cc1C(=O)NC1CCN(CCCOc2ccc(F)cc2)CC1OC (centres unmarked) [CISA, cisapride]", "No. of Re-entry, 2nd dose": "4^[a]"}
{"compound": "CC(C)(C)c1ccc(C(O)CCCN2CCC(C(O)(c3ccccc3)c3ccccc3)CC2)cc1 (centres unmarked) [TERF, terfenadine]", "No. of Re-entry, 2nd dose": 0}
